Measured growth, listed per entry.
Test system: RXF 393 renal
EXPERIMENT DESCRIPTION: NCI-60 one-dose screen, 48 h (100 = growth as untreated, 0 = no growth, -100 = all killed)
CONDITION NOTES: 10 µM unless noted
Procedure: Cells are grown in 96 well plates and exposed to the test compound for 48 hours. Compounds are tested at a single concentration, which is 10^-5 M for most compounds. The reported endpoint is percent growth (GI% or GIPRCNT), where numbers from 0 - 100% represent growth inhibition, and numbers from -100% - 0 represent cell death. For example, a value of 40 represents 60% growth inhibition. A value of 0 means no net growth occurred over the course of the experiment. […]
About 83,000 compounds went through this panel and 20% of them were active in at least one assay; those are over-represented in the sample as a whole.
Report the value in % with no unit label.

Task: Which growth value is on record for `CN1CCN(c2ccc([N+](=O)[O-])c3no[n+]([O-])c23)CC1` ?
Output: -92.8

Task: How about this compound: COC1=C(C)C(=O)C2=C(C1=O)C(CO)N1C(C#N)C3CC4C(C1C2N1CCOC41)N3C (stereo not drawn)
Output: -88.9

Others:
Task: Which growth value is on record for `CC[C@@]1(O)C(=O)OCc2c1cc1n(c2=O)Cc2cc3ccccc3nc2-1` ?
Output: 6.33

====

Tested on: DU-145 prostate
EXPERIMENT DESCRIPTION: NCI-60 one-dose screen, 48 h
CONDITION NOTES: 10 µM unless noted
This is part of a sample that, as a whole, favours compounds with a hit. Of some 83,000 tested, about 20% had one in any assay. Calls of active or inactive are those of the source. Rule for the calls: active = growth percent below 10; inactive = the rest.
Your response should consist of one outcome taken from active, inactive

Observe how each entry below is paired with its result.
Task: // outcome(item) with item = `CN1CCN(c2ccc([N+](=O)[O-])c3no[n+]([O-])c23)CC1`
Output: active

Task: How about this compound: CCC1(O)CC(OC2CC(N(C)C)C(OC3CC4OC5CC(=O)C(C)OC5OC4C(C)O3)C(C)O2)c2c(cc3c(c2O)C(=O)c2c(O)ccc(O)c2C3=O)C1C(=O)OC (stereo unspecified)
Output: active

Task: How about this compound: `CC1=C(CO)C2=C(C)C3(CC3)[C@@](C)(O)C(=O)C2=C1`
Output: active

Task: How about this compound: Cc1c(N)nc([C@H](CC(N)=O)NC[C@H](N)C(N)=O)nc1C(=O)N[C@H](C(=O)N[C@H](C)[C@@H](O)[C@H](C)C(=O)N[C@H](C(=O)NCCc1nc(-c2nc(C(=O)NCCC[S+](C)C)cs2)cs1)[C@@H](C)O)C(OC1OC(CO)C(O)C(O)C1OC1OC(CO)C(O)C(OC(N)=O)C1O)c1cnc[nH]1 (stereo partly specified)
Output: inactive

Others:
Task: // outcome(item) with item = `CC[C@@]1(O)C(=O)OCc2c1cc1n(c2=O)Cc2cc3ccccc3nc2-1`
Output: active

Task: How about this compound: CC[C@@]1(O)C[C@H](OC2CC(N(C)C)C(O)C(C)O2)c2c(O)c3c(c(O)c2[C@H]1OC1CC(N(C)C)C(O)C(C)O1)C(=O)c1cccc(O)c1C3=O (stereo partly specified)
Output: active

====

Measured growth, listed per entry.
Tested on: NCI-H226 lung
EXPERIMENT DESCRIPTION: NCI-60 one-dose screen, 48 h (100 = growth as untreated, 0 = no growth, -100 = all killed)
CONDITION NOTES: 10 µM unless noted
This is part of a sample that, as a whole, favours compounds with a hit. Of some 83,000 tested, about 20% had one in any assay. The source made the active and inactive calls. Rule for the calls: active = growth percent below 10; inactive = the rest.

Completed entries (count: 4):
Task: Which growth value is on record for CC(=O)O[C@H]1C[C@@H]2OC3C=C(C)CCC3(C)[C@@]1(C)[C@@]21CO1 (stereo not given in full) ?
Output: -24.8% (active)

Task: How about this compound: COC1CC(CC2CCC(C)C(C(C)C(=O)O)O2)OC2(OC(C)(C3CCC(C)(C4OC(C5OC(O)(CO)C(C)CC5C)CC4C)O3)CC2C)C1C (stereo not given)
Output: 22% (inactive)

Task: How about this compound: CCC(=O)OC1CCn2c1nc1c2C(=O)C(C)=C(N2CC2)C1=O (stereo not given)
Output: -23% (active)

Task: How about this compound: COC1=C(C)C(=O)C2=C(C1=O)C(CO)N1C(C#N)C3CC4C(C1C2N1CCOC41)N3C (stereo not given)
Output: -14.5% (active)

Next, consider the following compound.
Task: Which growth value is on record for `C[C@H]1CCC/C=C/[C@@H]2C[C@H](O)C[C@H]2[C@H](O)/C=C/C(=O)O1` ?
Output: -36.3% (active)

Data provenance: PubChem BioAssay (NCI)
